Assign screen value to each entry below.
B1: PIP5K1C peptide 640-655 (Phosphatidylinositol 4-phosphate 5-kinase type-1 gamma), 16-mer library wild type / TLN1 PTB (TLN1 Phosphotyrosine-binding (PTB) domain, residues 309-401) (parent)
chain 1: FPTDERSWVYSPLHYS
chain 2: GVSFFLVKEKMKGKNKLVPRLLGITKECVMRVDEKTKEVIQEWNLTNIKRWAASPKSFTLDFGDYQDGYYSVQTTEGEQIAQLIAGYIDIILK

variants of: B1; experiment: proteomic peptide phage display deep mutational scan (ProP-PD DMS): M13 P8 16-mer library selected against immobilised GST-tagged bait for four days (rounds), NGS of the eluted pools per day and pseudo-replica; conditions: with TLN1 PTB (TLN1 Phosphotyrosine-binding (PTB) domain, residues 309-401); bait immobilised on MaxiSorp plates (10 µg), library pre-cleared on GST, 2 h binding at 4 °C, five washes; one round per day, days 1-4; value from days 2 and 3; keep out of graded; scale: average fractional NGS count over selection days 2 and 3
Enter the number alone.

So what's the measured screen value for this one? chain 1 V9E
0.000929

Consider the variant shown here: chain 1 P2N What is its recorded screen value?
0.000183

Field request: screen value | item: chain 1 P12N
0.000185

Item under review: chain 1 L13M . Reported screen value?
0.000592

Sample chain 1 S16T — what was its screen value?
0.000518

Field request: screen value | item: chain 1 W8D
0

Which screen value reading was recorded for the variant chain 1 E5W ?
0.000904

Value lookup for screen value; key = chain 1 P12Q
0.000705

Numbers sourced from paper PMC12102759.
